Where do these numbers come from? They come from patent US10407422B2.

Target: myeloperoxidase (MPO) (Homo sapiens (Human), UniProt P05164)
Sequence (P05164 49-745): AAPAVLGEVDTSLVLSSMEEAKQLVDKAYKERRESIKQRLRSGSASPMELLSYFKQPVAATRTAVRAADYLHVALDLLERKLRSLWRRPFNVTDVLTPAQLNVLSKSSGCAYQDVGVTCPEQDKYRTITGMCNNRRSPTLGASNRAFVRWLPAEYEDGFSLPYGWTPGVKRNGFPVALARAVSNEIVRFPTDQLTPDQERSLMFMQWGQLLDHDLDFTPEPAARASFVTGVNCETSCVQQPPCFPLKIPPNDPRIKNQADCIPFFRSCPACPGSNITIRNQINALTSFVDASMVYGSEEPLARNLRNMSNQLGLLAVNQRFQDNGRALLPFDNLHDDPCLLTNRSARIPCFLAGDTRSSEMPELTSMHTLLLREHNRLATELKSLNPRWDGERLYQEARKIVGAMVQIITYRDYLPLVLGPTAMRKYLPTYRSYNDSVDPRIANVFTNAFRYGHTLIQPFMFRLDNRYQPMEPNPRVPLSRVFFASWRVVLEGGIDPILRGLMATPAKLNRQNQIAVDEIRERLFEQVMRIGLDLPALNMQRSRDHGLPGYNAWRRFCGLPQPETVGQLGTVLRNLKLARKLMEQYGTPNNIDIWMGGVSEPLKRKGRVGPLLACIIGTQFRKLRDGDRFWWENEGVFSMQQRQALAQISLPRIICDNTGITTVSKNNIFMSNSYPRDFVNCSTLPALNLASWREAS
Assay: MPO chlorination assay (APF assay)
Assay type: biochemical
Conditions: potency range class
compounds and their reported IC50
observed-property: IC50

- Cc1cnc(CNC(=O)c2ccc(Cn3cc(Cc4cc(N)nc5[nH]nnc45)cn3)cc2)cn1 [Example 91]: 101 to 999 nM
- Nc1cc(Cc2cnn(Cc3cccc(OC4CC4)c3)c2)c2nn[nH]c2n1 [Example 98]: 1 to 100 nM
- CC1C[C@@H](c2cccc(Cn3cc(Cc4cc(N)nc5[nH]nnc45)cn3)c2)CN1 (stereo partly drawn) [Example 202]: 1 to 100 nM
- Nc1cc(Cc2cnn(C3CCNC3)c2)c2nn[nH]c2n1 (stereo not drawn) [Example 66]: 101 to 999 nM
- Nc1cc(Cc2cn(Cc3cccc(C4CCNCC4)c3)nc2C(F)(F)F)c2nn[nH]c2n1 [Example 284]: 101 to 999 nM
- COc1ccc(-c2ccc(Cn3cc(Cc4cc(N)nc5[nH]nnc45)cn3)cc2)cn1 [Example 105]: 101 to 999 nM

* * *

Biological target: myeloperoxidase (MPO) (Homo sapiens (Human), UniProt P05164)
Assay: MPO chlorination assay (APF assay)
Format: biochemical
Details: potency range class
pIC50: −log10 of the molar value.
molecules and their reported pIC50
observed-property: pIC50

- Nc1cc(Cc2cnn(Cc3ccc4c(c3)C(c3ccccc3)CNC4)c2)c2nn[nH]c2n1 (stereo not drawn): 7.00 to 9.00
- CCn1c(Cn2cc(Cc3cc(N)nc4[nH]nnc34)cn2)nc2ccccc21: 6.00 to 7.00
- Nc1cc(Cc2cnn(Cc3ccccc3Cc3ccccc3)c2)c2nn[nH]c2n1: 7.00 to 9.00
- Nc1cc(Cn2cc(-c3ccccc3)nn2)c2nn[nH]c2n1: 6.00 to 7.00
- Nc1cc(Cc2cnn(Cc3ccc(C(=O)NCCO)cc3)c2)c2nn[nH]c2n1: 6.00 to 7.00
- Nc1cc(Cc2cnn(Cc3ccc4c(c3)CCC[C@H]4N)c2)c2nn[nH]c2n1: 7.00 to 9.00
- CN(Cc1ncc[nH]1)C(=O)c1ccc(Cn2cc(Cc3cc(N)nc4[nH]nnc34)cn2)cc1: 6.00 to 7.00
- Nc1cc(Cc2cnn(CC3CC(Cc4ccc(F)cc4)CN3)c2)c2nn[nH]c2n1 (stereo not drawn): 7.00 to 9.00
- N#Cc1cccc(-c2ccc(Cn3cc(Cc4cc(N)nc5[nH]nnc45)cn3)cc2)c1: 6.00 to 7.00
- Nc1cc(Cc2cnn(Cc3cccc4c3CCCC4)c2)c2nn[nH]c2n1: 7.00 to 9.00
- Nc1cc(Cc2cnn(-c3ccccc3)n2)c2nn[nH]c2n1: 6.00 to 7.00
- Cc1cncc(Oc2cccc(Cn3cc(Cc4cc(N)nc5[nH]nnc45)cn3)c2)n1: 6.00 to 7.00
- COc1ncc(-c2cccc(Cn3cc(Cc4cc(N)nc5[nH]nnc45)cn3)c2)cn1: 7.00 to 9.00
- COc1cc2ccc(Cn3cc(Cc4cc(N)nc5[nH]nnc45)cn3)cc2cn1: 6.00 to 7.00
- Nc1cc(Cc2cnn(Cc3cccc(O[C@H]4CN[C@H](CO)C4)c3)c2)c2nn[nH]c2n1: 6.00 to 7.00
- Nc1cc(Cc2cnn(C[C@@H]3C[C@H](Oc4ccc(F)cc4)CN3)c2)c2nn[nH]c2n1: 6.00 to 7.00
- C[C@@H]1CN(c2cccc(Cn3cc(Cc4cc(N)nc5[nH]nnc45)cn3)c2)C[C@H](C)N1: 7.00 to 9.00
- Nc1cc(Cc2cnn(Cc3cccc(-c4nccs4)c3)c2)c2nn[nH]c2n1: 6.00 to 7.00
- COc1cc(Cn2cc(Cc3cc(N)nc4[nH]nnc34)cn2)cc([C@@H]2CCNC2)c1: 7.00 to 9.00
- CN1CCN(c2ccc(Cn3cc(Cc4cc(N)nc5[nH]nnc45)cn3)cc2)CC1: 6.00 to 7.00
- Nc1cc(Cc2cnn(Cc3cccc(C(F)(F)F)c3)c2)c2nn[nH]c2n1: 6.00 to 7.00
